Test system: SK-OV-3
Assay: NCI tumour cell line growth inhibition, 48 h
Active and inactive are the calls of the source. No stated cut-off is given here; in the data, active = GI50 up to about 1.1 µM and inactive = higher.
READOUT TYPE: GI50

>>> test_result("Cc1nc(-c2nc(C)c(C(=O)NNC(=O)C[n+]3ccccc3)s2)sc1C(=O)NNC(=O)C[n+]1ccccc1")
"87.5 µM (inactive)"
>>> test_result("COC(=O)CCC(=O)NC1=C(NCc2ccccc2)C(=O)c2ccccc2C1=O")
"57.3 µM (inactive)"
>>> test_result("CCOc1cc2c(cc1O)/C(=N\\O)C[C@@H]1[C@@H]2CC[C@]2(C)[C@@H](O)CC[C@@H]12")
"0.0374 µM (active)"
>>> test_result("O=C(NC(Cl)(C(F)(F)F)C(F)(F)F)c1ccc(F)cc1")
"> 100 µM (inactive)"
>>> test_result("COC(=O)Cc1c(-c2c(CC(=O)OC)c3ccccc3n2C2OC(COC3OC(COC(C)=O)C(OC(C)=O)C(OC(C)=O)C3OC(C)=O)C(O)C(O)C2O)[nH]c2ccccc12 (stereo not given)")
"74.8 µM (inactive)"
>>> test_result("CN(C)CCn1c(=O)c2ccc(NCCN3CCNCC3)c3c(=O)c4ccccc4n(c1=O)c23")
"3.45 µM (inactive)"
>>> test_result("O=C(O)c1ccc(C(=O)c2ccccc2C(=O)O)cc1C(=O)O")
"> 100 µM (inactive)"
>>> test_result("O=C(NCC(=O)N1CCOC1=O)OCc1ccccc1")
"> 100 µM (inactive)"
>>> test_result("Oc1nc2ccccc2c2oc3ccccc3c12")
"76 µM (inactive)"
>>> test_result("N#Cc1c(-c2ccc([N+](=O)[O-])cc2)c(C#N)c(=O)n(NS(=O)(=O)c2ccccc2)c1-c1ccccc1")
"> 100 µM (inactive)"

---

Tested on: MCF7
Experiment: NCI tumour cell line growth inhibition, 48 h
Calls of active or inactive are those of the source. Rule as the data show it: active = GI50 up to about 1.1 µM and inactive = higher.
Outcome codes: T (active), F (inactive)

>>> class_name("COc1ccc2c(c1)/C(=C\\c1c(C)nc3sc(C)cn13)C(=O)N2")
"T"
>>> class_name("COc1ccc(/C=N\\N(C)Cc2cccc3ccsc23)cc1")
"F"
>>> class_name("COc1cc(/N=N\\c2cccc(S(=O)(=O)O)c2)ccc1/N=N\\c1ccc(/C=C/c2ccc(-n3on3-c3ccc(/C=C/c4ccc(/N=N/c5ccc(/N=N\\c6cccc(S(=O)(=O)O)c6)cc5OC)cc4S(=O)(=O)O)c(S(=O)(=O)O)c3)cc2S(=O)(=O)O)c(S(=O)(=O)O)c1")
"F"
>>> class_name("CCOC(=O)C(C)(C(=O)OCC)/C(Cl)=C\\Cl")
"F"
>>> class_name("[O-][S+](CC1(O)CCCCC1)c1ccccc1 (centres undefined)")
"F"
>>> class_name("Cc1ccc(-c2cc[n+]3c(n2)oc2ccccc23)cc1")
"F"
>>> class_name("CC1(C)OCC(CO)(CO)CO1")
"F"
>>> class_name("N#CC(c1ccccc1)N(CCOCCOCCN(C(=O)c1cccc2ccccc12)C(C#N)c1ccccc1)C(=O)c1cccc2ccccc12 (centres undefined)")
"F"
>>> class_name("C[C@H]1CC[C@H]([C@@H](C)[C@H]2[C@@H](O)C[C@H]3[C@@H]4CC[C@H]5C[C@@H](O)CC[C@]5(C)[C@H]4CC[C@]23C)NC1")
"F"
>>> class_name("N=C1C(=N)c2ccccc2-c2ccccc21")
"T"
>>> class_name("CC(=O)O[C@H]1[C@H](OC(C)=O)[C@@H](CN=[N+]=[N-])OCO[C@@H]1CN=[N+]=[N-]")
"F"
>>> class_name("Cc1cc(N(C)c2ccccc2)nc(N(C)c2ccccc2)n1")
"F"
>>> class_name("COc1ccc(-c2[nH]c(-c3ccc(OC)cc3)c(-c3ccccn3)c2-c2ccccn2)cc1")
"F"
>>> class_name("CCOC(=O)Cc1cnc(NC(NC(=O)CC)(C(F)(F)F)C(F)(F)F)s1")
"F"
>>> class_name("COC(=O)c1ccccc1C1CN=NC12Cc1ccc(C)c(C)c1C2=O (centres undefined)")
"F"
>>> class_name("CCOC(=O)C(NC(=O)c1ccccc1)(Nc1ccc(S(=O)(=O)Nc2ncccn2)cc1)C(F)(F)F (centres undefined)")
"F"
>>> class_name("C=CCc1c(C)nc(C)nc1N/N=C/C=C/c1ccccc1")
"F"
>>> class_name("CCOC(=O)c1nc2cc(C(F)(F)F)ccc2nc1Nc1ccc(C(=O)NC(C(=O)OCC)C(=O)OCC)cc1")
"F"
>>> class_name("Cc1nn(C(=O)c2ccncc2)c2c1C(c1ccccc1)SC(=N)N2 (centres undefined)")
"F"
